Every entry's value here was drawn from PubChem BioAssay (NCI).

- Test system: OVCAR-4 ovarian
- protocol_summary: NCI tumour cell line growth inhibition, 48 h
attribute_measured: TGI

// worked examples, TGI included
molecule	recorded_measurement
C=C(COC(C)=O)CC(/C=C(\C)CCC=C(C)C)OC(C)=O (stereo unspecified)	> 100 µM
CCOC(=O)c1ccc(C(=O)/C(C(=O)OC(C)(C)C)=C2\CCCN2C)n1C	> 100 µM
CC1(C)OC(=O)C=C([O-])O1.CC1(C)OC(=O)C=C([O-])O1.O=c1c(O)c(-c2ccc([O-])cc2[O-])oc2cc(O)cc(O)c12.[Ti+4]	> 100 µM
COc1ccc(C2C(N)=NCC2c2ccccn2)cc1 (stereo unspecified)	> 100 µM

Continue with the molecule presented below.
Task: // TGI lookup, key: CN1CCN(C)C1c1cccc(C2N(C)CCN2C)c1
Output: > 100 µM

====

- Tested on: SNB-75 CNS
- protocol_summary: NCI tumour cell line growth inhibition, 48 h
# reported TGI; entries follow

These recorded examples may help you get a feel for the data.
molecule	TGI
CC(C)(C)C1(O)Cc2ccccc2C(=O)O1 (stereo unspecified)	> 100 µM
Cc1ccc(-n2cc(-c3ccc(Cl)cc3)c3c2N=CN2NC(c4ccco4)=NC32)cc1 (stereo unspecified)	18.1 µM
COc1cc2nc(-c3c(F)cccc3F)n(Cc3c(F)cccc3F)c2cc1Cc1c(F)cccc1F	> 70.8 µM
N#CC(C#N)=Cc1cccc(Oc2ccccc2)c1	> 94.9 µM
Cc1cccc(NC(Nc2cccc(C)c2)=C(C(Cl)=C(Cl)Cl)[N+](=O)[O-])c1	> 68.6 µM

Task: Value lookup for TGI; key = O=C(c1ccccc1)[C@H]1Nc2cnccc2C2c3ccccc3CC21 (stereo partly specified)
Output: 71.9 µM

Task: I have this molecule here, CCOC(=O)c1c(NC(=S)Nc2ccc(C)cc2)sc2c1CCN(C)C2 , and I need its recorded TGI.
Output: 0.0946 µM

Task: What TGI value was documented for this molecule, O=CN(O)CC(=O)O ?
Output: > 100 µM

====

- Test system: T-47D breast
- protocol_summary: NCI tumour cell line growth inhibition, 48 h
attribute_measured: TGI

                                   compound  attribute_measured  recorded_measurement
0  C=CC(=O)N1CCN(c2ncnc3c(F)c(-c4c(O)cccc4F)c(Cl)cc23)CC1                 TGI               42.9 µM
1  FC(F)(F)c1ccc2c(Nc3cccc(C4CC(c5ccccc5)=NN4c4ccc(Cl)cc4)c3)ccnc2c1 (centres undefined)                 TGI               37.4 µM
2  C[C@@H]1C(=O)CC2(O)[C@@]13C[C@@H](OC(=O)[C@@H]3O)[C@@H](C)[C@@]21COC1=O (some centres undefined)                 TGI              > 100 µM
3  COc1cc2nc(-c3c(F)cccc3F)n(Cc3c(F)cccc3F)c2cc1Cc1c(F)cccc1F                 TGI              > 100 µM
4              O=c1oc2ccccc2c2nc3ccccc3cc12                 TGI              > 100 µM

Task: Entry under review: CC1OC(n2cc(F)c(=O)[nH]c2=O)C(O[Si](C)(C)C(C)(C)C)C1O[Si](C)(C)C(C)(C)C (centres undefined) . Reported TGI?
Output: 27.1 µM

Task: Value lookup for TGI; key = Cc1ccc(C(=O)c2[nH]c(Nc3cc(C)ccn3)c(C(=S)Nc3ccccc3)c2N)cc1
Output: > 100 µM

Task: I am curious: what TGI value has been reported for Nc1ccc(SC23CC4CC(CC(C4)C2)C3)cc1 ?
Output: > 100 µM

Task: Requested field: TGI. Item: COc1ccc2c(c1)[C@@]13CCN4CC5=CCO[C@H]6CC(=O)N2[C@H]1[C@H]6[C@H]5C[C@H]43
Output: > 100 µM

====

// reported GI50 per item
- Tested on: LOX IMVI melanoma
- protocol_summary: NCI tumour cell line growth inhibition, 48 h

Some entries whose results are on file:
In [3]: df
Out[3]:
                                   compound  attribute_measured  recorded_measurement
0  Cc1noc(C)c1-c1ccc2[nH]c(=O)n3c2c1OC[C@@H]3c1ccccn1                GI50              0.581 µM
1                       CCCSc1cc(Cl)nc(N)n1                GI50              > 100 µM
2  COCC(=O)OC1CCn2c1nc1c2C(=O)C(C)=C(NC(C)=O)C1=O (stereo not given)                GI50               2.81 µM
3  Clc1ccc(OCc2nnc3n2N=C(c2ccc(Cl)cc2Cl)CS3)c(Cl)c1                GI50               14.1 µM
4  CNC(=O)c1cn(C[C@H](F)CCc2ccc(NC(=O)Cc3cc(OC4CC(F)(F)C4)cc(C)n3)nn2)nn1                GI50              > 100 µM

Task: Test system LOX IMVI melanoma; read-out GI50; what value for Cc1ccc(C(=O)CC(Sc2cccc(Cl)c2Cl)c2ccc(Cl)cc2)cc1C (stereo not given) ?
Output: 13.5 µM

Task: // fetch LOX IMVI melanoma GI50 for COc1ccc(-c2cc(-c3cc(Cl)ccc3Cl)nc3nc(=S)[nH]c(N)c23)cc1
Output: 14.2 µM

Task: Query GI50 on LOX IMVI melanoma for O=C(Nc1cc(-c2ccccc2)[nH]n1)c1ccc(Cl)cc1
Output: 9.23 µM

Task: Lab request: please report GI50 under test system LOX IMVI melanoma for CNC(=O)c1ccc(-c2cnc3ncc(Cc4ccc5ncccc5c4)n3n2)cc1F
Output: > 100 µM

Task: Under LOX IMVI melanoma: GI50 value of CCN(CCO)CCNc1ccc(C)c2sc3cc(Cl)ccc3c(=O)c12 ?
Output: 1.59 µM

====

- Test system: HCT-15 colon
- protocol_summary: NCI tumour cell line growth inhibition, 48 h
attribute_measured: TGI

Task: Can you share its TGI? I mean this molecule: COc1ccccc1C(=O)c1ccc2ccccc2c1
Output: > 100 µM

Task: Sample COc1cc2nc(-c3c(F)cccc3F)n(Cc3c(F)cccc3F)c2cc1Cc1c(F)cccc1F — what was its TGI?
Output: > 100 µM

====

Reported TGI values follow for various compounds
- Tested on: NCI-H23 lung
- protocol_summary: NCI tumour cell line growth inhibition, 48 h
Unit µM implied. Number only.

In [3]: df
Out[3]:
                           structure_smiles  measurement_units  recorded_measurement
0  Nc1nc(Nc2ccc(OCc3cccc(F)c3)cc2)c2c(n1)[nH]c1ccc(O)cc12                 µM                  22.2

# input for lookup
Task: Could you tell me which TGI is on file for O=C(/C=C1\C[C@H]2C=Nc3ccccc3C(=O)N2C1)NCCCCCNC(=O)/C=C1\C[C@H]2C=Nc3ccccc3C(=O)N2C1 ?
Output: 26.2

====

TGI reference
- System: HL-60(TB) leukemia
- protocol_summary: NCI tumour cell line growth inhibition, 48 h

Task: Returns the measured TGI for the input compound. Input: N#Cc1c(-c2ccccc2)nc2c(c(-c3ccccc3)nn2-c2ccccc2)c1-c1ccc(O)cc1
Output: 23.7 µM

Task: Suppose we examine the compound N/C(CSCCSC/C(N)=N/O)=N\O ; what TGI value has been reported?
Output: > 100 µM

Task: TGI lookup needed for COC(=O)C(CCSC)NC(=O)CSc1nnc(COc2ccc(Cl)cc2)n1-c1ccccc1 (centres undefined) , thanks.
Output: 38.6 µM

Task: Data request, read-out TGI, for CCOC(=O)c1c(NC(=S)Nc2ccc(C)cc2)sc2c1CCN(C)C2
Output: > 100 µM

====

- Test system: SF-539 CNS
- protocol_summary: NCI tumour cell line growth inhibition, 48 h
Below, each entry is listed with its recorded TGI.
Give just the numeric value; µM need not be written.

Worked cases, TGI given:
>>> df
                           structure_smiles  subject_of_test  measurement_units  recorded_measurement
0  COc1cc(-c2cn(C)c(=O)c(C)c2C)cc(OC)c1CN1CC[C@H](N2CCN(c3ccc(N[C@H]4CCC(=O)NC4=O)cc3F)CC2)C(F)(F)C1       SF-539 CNS                 µM                  28.6
1  C(=N/Nc1ccc(-c2nc3ccccc3[nH]2)cc1)/c1c(-c2ccccc2)[nH]c2ccccc12       SF-539 CNS                 µM                  55.2

The record that follows has no TGI shown yet.
Task: Dear colleague, I am looking for the recorded TGI of the following molecule: CCCCCCNc1nc(NCCCCCC)c2[nH]c(NCCCCCC)nc2n1
Output: 21.1
